- Measurement Target: human P2X3 receptor (Homo sapiens (Human), UniProt P56373)
- Sequence (P56373 whole entry): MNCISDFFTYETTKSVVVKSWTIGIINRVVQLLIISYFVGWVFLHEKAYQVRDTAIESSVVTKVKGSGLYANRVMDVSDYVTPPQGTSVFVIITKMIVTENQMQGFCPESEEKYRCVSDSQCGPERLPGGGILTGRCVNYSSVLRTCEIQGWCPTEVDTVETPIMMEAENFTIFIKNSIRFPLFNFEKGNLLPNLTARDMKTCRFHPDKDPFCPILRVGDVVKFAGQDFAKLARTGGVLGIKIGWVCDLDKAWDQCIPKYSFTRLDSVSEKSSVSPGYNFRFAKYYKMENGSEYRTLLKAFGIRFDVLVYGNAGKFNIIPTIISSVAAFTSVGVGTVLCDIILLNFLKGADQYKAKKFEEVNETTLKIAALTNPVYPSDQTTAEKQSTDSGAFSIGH
- Test Protocol: P2X3 receptor inhibition, ATP-evoked Fluo-3 calcium fluorescence (FDSS 3000)
- Study Conditions: C6BU-1 cell transfected with human P2X3 receptor gene; ATP-evoked Fluo-3 fluorescence
Label key: yes means IC50 under 60 nM; no means IC50 of 60 nM or more.

Solved cases below.
Cc1cc(-c2ccc(N3C(=O)C(O)=C(C(=O)CC(C)C)C3c3ccccc3OC(C)C)cc2)on1 (stereo not drawn)	no
COCCOc1ncccc1C1c2c(C(C)C)n[nH]c2C(=O)N1c1ccc(-c2noc(C)n2)cc1 (stereo not drawn)	no
COCCOc1ccccc1C1C(C(=O)CC(C)C)=C(O)C(=O)N1c1ccc(-c2ccoc2)cc1 (stereo not drawn)	yes
CC(C)c1n[nH]c2c1C(c1ccccc1OCC#N)N(c1ccc(-c3ccsc3)cc1)C2=O (stereo not drawn)	yes

Now examine the next entry.
Ask: Bench note: check whether CCOCOc1ccccc1C1C(C(=O)C(C)C)=C(O)C(=O)N1c1ccc(-c2nc(C)no2)cc1 (stereo not drawn) shows IC50 below 60 nM
Result: no
